test system: U2OS; experiment: Incucyte cell viability with U2OS; type: toxicity, cell-based; details: human, 6 h, 10 µM, compound concentration 10 uM, replicate number 2, timepoint 6 hours; further: filed as whole numbers so only -1 and 0 and 1 occur
value-kind: Growth Rate
# answer = number (no unit)

Recorded Growth Rate, per entry:
compound	Growth Rate
CC(=O)C1=C(C)N(c2cccc(C(F)(F)F)c2)C(=O)N[C@H]1c1ccc(C#N)nc1	0
OC1(c2ccc(Cl)cc2)CCN(Cc2c[nH]c3ccccc23)CC1	0

Endpoint output: Growth Rate of `CCc1cc(C(C)=O)c(O)cc1OCCCCCC(C)(C)c1nn[nH]n1` . Value?
0

How about `CN(C)c1ncnc(-c2ccc3nc(Nc4cc(CN5CCN(C(=O)CC(F)(F)F)CC5)ccn4)[nH]c3c2)c1Cl` ?
1

How about O=C1NCN(c2ccccc2)C12CCN(CCCOc1ccc(F)cc1)CC2 [SPIRAMIDE] ?
1

###

Entries and their Population Fragmented Nuclei (%) values follow.
system: Fibroblast; assay: Multiplex assay against human fibroblast; format: toxicity, cell-based; details: 24 h, 10 µM, compound concentration 10 uM, replicate 1
Output spec: scalar in %, unitless text.

Recorded Population Fragmented Nuclei (%), per entry:
compound	value-kind	units-label	numeric-value
Cl.N#Cc1ccc2[nH]cc(CCCCN3CCN(c4ccc5oc(C(N)=O)cc5c4)CC3)c2c1 [VILAZODONE HYDROCHLORIDE]	Population Fragmented Nuclei (%)	%	22
CC(C)(O)CNc1ncc(-c2ccnc(Nc3ccnc(Cl)c3)n2)c(CC2CC2)n1	Population Fragmented Nuclei (%)	%	20
CC(C)NCC(O)COc1ccc(CCOCC2CC2)cc1.Cl (stereo not drawn) [BETAXOLOL HYDROCHLORIDE]	Population Fragmented Nuclei (%)	%	25
OC1(c2ccc(Cl)cc2)CCN(Cc2c[nH]c3ccccc23)CC1	Population Fragmented Nuclei (%)	%	24
Cc1csc2c(N[C@@H](C)CN3CCN(S(=O)(=O)c4ccc(Cl)c(Cl)c4)CC3)ncnc12	Population Fragmented Nuclei (%)	%	36

Endpoint output: Population Fragmented Nuclei (%) of CN1CCC[C@@H]1CCO[C@](C)(c1ccccc1)c1ccc(Cl)cc1.O=C(O)/C=C/C(=O)O [CLEMASTINE FUMARATE] . Value?
34

How about O=C1NCN(c2ccccc2)C12CCN(CCCOc1ccc(F)cc1)CC2 [SPIRAMIDE] ?
20

How about `CN1CCN(c2ccc(OC(F)(F)F)c(Nc3ncc4c(n3)-c3c(c(C(N)=O)nn3CCO)CC4)c2)CC1` ?
39

How about `CCN(CC)CCCCNc1ncc2cc(-c3cc(OC)cc(OC)c3)c(NC(=O)NC(C)(C)C)nc2n1` ?
42

How about `Cc1[nH]c(/C=C2\C(=O)Nc3ccc(S(=O)(=O)N(C)c4cccc(Cl)c4)cc32)c(C)c1C(=O)N1CCN(C)CC1` ?
41

How about `CN(C)C(=O)/C(C#N)=C/c1ccc(-c2nc3cnc4[nH]ccc4c3n2C2CCCCC2)o1` ?
27

How about `CC[C@H](C)C(=O)O[C@H]1C[C@@H](C)C=C2C=C[C@H](C)[C@H](CC[C@@H]3C[C@@H](O)CC(=O)O3)[C@H]21` ?
26

How about `Cc1nc(-c2cn3c(n2)-c2ccc(-c4cnn(C(C)(C)C(N)=O)c4)cc2OCC3)n(C(C)C)n1` ?
23

How about `COc1ncc(-c2ccc3nccc(-c4ccnnc4)c3c2)cc1NS(=O)(=O)c1ccc(F)cc1F` ?
25

How about C[C@@H](NCCCc1cccc(C(F)(F)F)c1)c1cccc2ccccc12.Cl [CINACALCET HYDROCHLORIDE] ?
35

How about `C=CC(=O)Nc1cccc(C(=O)Nc2ccc(Nc3cc(-c4[nH]c(SC)nc4C)ccn3)cc2)c1` ?
32

How about COc1cccc([C@@H](C)NCCCc2ccccc2Cl)c1.Cl [TECALCET HYDROCHLORIDE] ?
25

How about `C=CC(=O)Nc1ccc2ncnc(Nc3ccc(OCc4cccc(F)c4)c(Cl)c3)c2c1.Cc1ccc(S(=O)(=O)O)cc1` ?
31

How about CN(C)C(=O)N[C@H]1CC[C@H](CCN2CCN(c3cccc(Cl)c3Cl)CC2)CC1.Cl [CARIPRAZINE HYDROCHLORIDE] ?
23

How about `Cn1cc(-c2[nH]c3cc(NC(=O)[C@H](N)C4CCCCC4)cc4c3c2C=NNC4=O)cn1` ?
54

How about `CN1CCN(CCOc2cc(OC3CCOCC3)c3c(Nc4c(Cl)ccc5c4OCO5)ncnc3c2)CC1` ?
32

How about CN1CCCC(n2nc(Cc3ccc(Cl)cc3)c3ccccc3c2=O)CC1.Cl (stereo not drawn) [AZELASTINE HYDROCHLORIDE] ?
32

How about `Cc1cc(C)cc(-c2cnc3cc(Cl)c(-c4cccc(O)c4)cc3c2OCCCN)c1` ?
28

How about `Cc1nc(-c2ccc(-c3ccc(C(=O)N4CCc5cc6c(cc54)C4(CCN(C)CC4)CO6)cc3)c(C)c2)no1` ?
35

How about `COc1cc2nccc(Oc3ccc(NC(=O)Nc4cc(C)on4)c(Cl)c3)c2cc1OC.O` ?
29

###

system: Fibroblast; experiment: Multiplex assay against human fibroblast; format: toxicity, cell-based; details: 24 h, 10 µM, compound concentration 10 uM, replicate 1
value-kind: Population Pyknosed Nuclei (%)
Output spec: scalar in %, unitless text.

compound	units-label	Population Pyknosed Nuclei (%)
OC1(c2ccc(Cl)cc2)CCN(Cc2c[nH]c3ccccc23)CC1	%	24
COc1cc(-n2cnc3cc(-c4ccc(Cl)cc4)sc3c2=O)ccc1OCCN1CCCC1	%	51
Cc1nc(-c2ccc(-c3ccc(C(=O)N4CCc5cc6c(cc54)C4(CCN(C)CC4)CO6)cc3)c(C)c2)no1	%	38
CNc1nc(NCc2ccc(NS(C)(=O)=O)cc2Cl)cc(-c2ccccn2)n1	%	22
C[C@@H](NCCCc1cccc(C(F)(F)F)c1)c1cccc2ccccc12.Cl [CINACALCET HYDROCHLORIDE]	%	28

Endpoint output: Population Pyknosed Nuclei (%) of CN1CCCC(n2nc(Cc3ccc(Cl)cc3)c3ccccc3c2=O)CC1.Cl (stereo not drawn) [AZELASTINE HYDROCHLORIDE] . Value?
14

How about `C=CC(=O)Nc1ccc2ncnc(Nc3ccc(OCc4cccc(F)c4)c(Cl)c3)c2c1.Cc1ccc(S(=O)(=O)O)cc1` ?
28

How about `CN1CCN(c2ccc(OC(F)(F)F)c(Nc3ncc4c(n3)-c3c(c(C(N)=O)nn3CCO)CC4)c2)CC1` ?
23

###

test system: HEK-293T; assay: Multiplex assay against HEK293T; assay type: toxicity, cell-based; settings: human, 48 h, 10 µM, compound concentration 10 uM, replicate 1
Entries and their Population Mitochondria Different-Phenotype (%) values follow.

Recorded Population Mitochondria Different-Phenotype (%), per entry:
compound	result
COc1ncc(-c2ccc3nccc(-c4ccnnc4)c3c2)cc1NS(=O)(=O)c1ccc(F)cc1F	76%
Cl.N#Cc1ccc2[nH]cc(CCCCN3CCN(c4ccc5oc(C(N)=O)cc5c4)CC3)c2c1 [VILAZODONE HYDROCHLORIDE]	100%
CN(C)C(=O)/C(C#N)=C/c1ccc(-c2nc3cnc4[nH]ccc4c3n2C2CCCCC2)o1	29%

Field: next compound
Endpoint output: Population Mitochondria Different-Phenotype (%) of `Cc1c(-c2ccc(O)cc2)n(Cc2ccc(OCCN3CCCCCC3)cc2)c2ccc(O)cc12` . Value?
100%

###

test system: Fibroblast; test: Multiplex assay against human fibroblast; type: toxicity, cell-based; conditions: 48 h, 1 µM, compound concentration 1 uM, replicate 2
Entries and their Population Tubulin-Different-Phenotype (%) values follow.
Output spec: scalar in %, unitless text.

Recorded Population Tubulin-Different-Phenotype (%), per entry:
compound	numeric-value
Cn1cc(-c2[nH]c3cc(NC(=O)[C@H](N)C4CCCCC4)cc4c3c2C=NNC4=O)cn1	38
O=C1NCN(c2ccccc2)C12CCN(CCCOc1ccc(F)cc1)CC2 [SPIRAMIDE]	36
OC1(c2ccc(Cl)cc2)CCN(Cc2c[nH]c3ccccc23)CC1	46

Field: next compound
Tell me reported Population Tubulin-Different-Phenotype (%) for C[C@@H](NCCCc1cccc(C(F)(F)F)c1)c1cccc2ccccc12.Cl [CINACALCET HYDROCHLORIDE] , tested with Fibroblast.
58

###

tested on: HEK-293T; assay: Multiplex assay against HEK293T; format: toxicity, cell-based; settings: human, 24 h, 10 µM, compound concentration 10 uM, replicate 2
Please map values of Population Apoptotic (%) to classes as shown: band A (below 20%), band B (20% to below 90%), band C (90% or more)

compound	target-or-test-system	class-assignment
CN1CCCC(n2nc(Cc3ccc(Cl)cc3)c3ccccc3c2=O)CC1.Cl (configuration not stated) [AZELASTINE HYDROCHLORIDE]	HEK-293T	band C
COc1ncc(-c2ccc3nccc(-c4ccnnc4)c3c2)cc1NS(=O)(=O)c1ccc(F)cc1F	HEK-293T	band B
CN(C)C(=O)N[C@H]1CC[C@H](CCN2CCN(c3cccc(Cl)c3Cl)CC2)CC1.Cl [CARIPRAZINE HYDROCHLORIDE]	HEK-293T	band B

Class (by measured Population Apoptotic (%)) for O=C1NCN(c2ccccc2)C12CCN(CCCOc1ccc(F)cc1)CC2 [SPIRAMIDE]
band B

How about `CC[C@H](C)C(=O)O[C@H]1C[C@@H](C)C=C2C=C[C@H](C)[C@H](CC[C@@H]3C[C@@H](O)CC(=O)O3)[C@H]21` ?
band A

How about C[C@@H](NCCCc1cccc(C(F)(F)F)c1)c1cccc2ccccc12.Cl [CINACALCET HYDROCHLORIDE] ?
band B

How about `CN(C)c1ncnc(-c2ccc3nc(Nc4cc(CN5CCN(C(=O)CC(F)(F)F)CC5)ccn4)[nH]c3c2)c1Cl` ?
band A

How about `Cc1nc(Nc2n[nH]c3c2CN(C(=O)N[C@H](CN(C)C)c2ccccc2)C3(C)C)c2sccc2n1` ?
band A

How about `CCN(CC)CCCCNc1ncc2cc(-c3cc(OC)cc(OC)c3)c(NC(=O)NC(C)(C)C)nc2n1` ?
band A

How about `CN(C)CC#Cc1ccc(OCCCc2sc(N3CCc4cccc(C(=O)Nc5nc6ccccc6s5)c4C3)nc2C(=O)O)c(F)c1` ?
band B

How about `Cc1sc2c(c1C)C(c1ccc(Cl)cc1)=N[C@@H](CC(=O)OC(C)(C)C)c1nnc(C)n1-2` ?
band A

How about `Cc1nc(-c2ccc(-c3ccc(C(=O)N4CCc5cc6c(cc54)C4(CCN(C)CC4)CO6)cc3)c(C)c2)no1` ?
band C

How about `CN(C)C(=O)/C(C#N)=C/c1ccc(-c2nc3cnc4[nH]ccc4c3n2C2CCCCC2)o1` ?
band B

Data provenance: ChEMBL document CHEMBL4689842
